- Experimental target: T1, hen egg lysozyme (Gallus gallus (hen egg white), UniProt P00698)
- T1 construct: hen egg lysozyme (HEL), the antigen of D3-L11; also in PDB 6JB8; The supplier is named for the ELISA only; also called HEL; antigen lysozyme; source: bought: Sigma-Aldrich, Cat No. L6876
- T1 sequence (P00698 19-147): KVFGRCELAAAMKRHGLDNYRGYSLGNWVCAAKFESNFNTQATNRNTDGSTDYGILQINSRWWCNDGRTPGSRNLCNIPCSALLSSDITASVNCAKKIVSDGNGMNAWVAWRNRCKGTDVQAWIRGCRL
- Procedure text: SPR; Biacore T200; lysozyme immobilised on Sensor Chip CM5 by amine coupling (200 RU); VHH injected 300 s, dissociation 600 s in PBST (PBS, 0.005% Tween 20); 1:1 binding model; duplicate
- Condition: both partners purified
pKd values, listed per item
Value format note: pKd is -log10 of concentration (mol/L); just state the number.

stdin: Fill in pKd for record D3-L11 A79T (VHH, as the VHH chain of Sm1 (D3-L11 wild type, PDB 6JB8) with A79T; SAG tripeptide linker before the C-terminal 6xHis tag; source: ExpiCHO, transient transfection, purified from supernatant (His Mag Sepharose excel); not shown: His6, C-terminal, kept) VHH: DVQLVESGGGSVQAGGSLRLSCAASGSTDSIEYMTWFRQAPGKAREGVAALYTHTGNTYYTDSVKGRFTISQDKAKNMTYLRMDSVKSEDTAIYTCGATRKYVPVRFALDQSSYDYWGQGTQVTVSS
stdout: 10.88

Let's switch to this binder now.
stdin: Supply pKd value. Item: D3-L11 A24L (VHH, as the VHH chain of Sm1 (D3-L11 wild type, PDB 6JB8) with A24L; SAG tripeptide linker before the C-terminal 6xHis tag; source: ExpiCHO, transient transfection, purified from supernatant (His Mag Sepharose excel); not shown: His6, C-terminal, kept) VHH: DVQLVESGGGSVQAGGSLRLSCALSGSTDSIEYMTWFRQAPGKAREGVAALYTHTGNTYYTDSVKGRFTISQDKAKNMAYLRMDSVKSEDTAIYTCGATRKYVPVRFALDQSSYDYWGQGTQVTVSS
stdout: 10.36
